Molecular target: UniProtKB P0DTD1
pIC50: −log10 of the molar value.
This listing pairs compounds with measured pIC50.

Use the examples below as a reference point.
CC1(C)CC(C[C@@H](C#N)NC(=O)C2CC3(CCCCC3)CN2C(=O)c2cc3cccc(Cl)c3[nH]2)C(=O)N1 (single isomer, unassigned) [930 (Isomer 2)] | 4.52 to 5.00
N#C[C@H](C[C@@H]1CCNC1=O)NC(=O)C1CC2(CCC2)CN1C(=O)c1cc2cccc(Cl)c2[nH]1 (single isomer, unassigned) [988 (Isomer 2)] | > 5.70

Turning now to a further record.
input: GET /values?readout=pIC50&system=UniProtKB P0DTD1&item= N#C[C@H](C[C@@H]1CCCNC1=O)NC(=O)C1CC2(CCC(F)(F)CC2)CN1C(=O)c1cc2cccc(Cl)c2[nH]1 (single isomer, unassigned) [805 (Isomer 1)]
output: 4.52 to 5.00

---

Biological target: SARS-CoV2 Mpro (Severe acute respiratory syndrome coronavirus 2 (2019-nCoV) (SARS-CoV-2), UniProt P0DTD1)
pIC50: −log10 of the molar value.
This listing pairs molecules with measured pIC50.

N#C[C@H](C[C@@H]1CCNC1=O)NC(=O)C1CC2(CCC2)CN1C(=O)c1cc2ccc(Cl)cc2[nH]1 (single isomer, unassigned) [990 (Isomer 2)] | > 5.70
COc1cccc2[nH]c(C(=O)N3C[C@H](C)C[C@H]3C(=O)N[C@H](C#N)C[C@@H]3CCNC3=O)cc12 | 5.00 to 5.70
N#C[C@H](C[C@@H]1CCCNC1=O)NC(=O)C1CC2(CCC(F)(F)CC2)CN1C(=O)c1cc2cccc(Cl)c2[nH]1 (single isomer, unassigned) [805 (Isomer 2)] | > 5.70
COc1cccc2[nH]c(C(=O)N3CC4(CCCCC4)CC3C(=O)N[C@H](C#N)CC3CCC(C)(C)NC3=O)cc12 (single isomer, unassigned) [1111 (Isomer 1)] | > 5.70
CC1(C)CC(C[C@@H](C#N)NC(=O)C2CC3(CCCCC3)CN2C(=O)c2cc3cccc(Cl)c3[nH]2)C(=O)N1 (single isomer, unassigned) [930 (Isomer 1)] | 4.52 to 5.00

Turning now to a further record.
input: State the recorded pIC50 for this entry: COc1cccc2[nH]c(C(=O)N3CC4(CCCCC4)CC3C(=O)N[C@H](C#N)CC3CCC(C)(C)NC3=O)cc12 (single isomer, unassigned) [1111 (Isomer 3)]
output: > 5.70

---

Biological target: 229E Mpro (Human coronavirus 229E (HCoV-229E), UniProt P0C6X1)
Sequence (P0C6X1 2966-3267 limits assumed): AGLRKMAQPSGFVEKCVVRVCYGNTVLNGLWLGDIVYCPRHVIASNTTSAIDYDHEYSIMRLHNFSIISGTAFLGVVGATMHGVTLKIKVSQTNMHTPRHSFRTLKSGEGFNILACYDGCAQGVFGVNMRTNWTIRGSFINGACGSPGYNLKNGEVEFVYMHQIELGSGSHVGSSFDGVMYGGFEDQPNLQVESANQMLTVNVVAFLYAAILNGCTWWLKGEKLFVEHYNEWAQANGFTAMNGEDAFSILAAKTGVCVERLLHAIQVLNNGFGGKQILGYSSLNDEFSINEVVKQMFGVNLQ
Experiment: 229E Mpro activity
Format: biochemical
Details: read-out: 229E Mpro EC50
Measured property: EC50

Use the examples below as a reference point.
N#C[C@H](C[C@@H]1CCCNC1=O)NC(=O)[C@H](CC1CC1)NC(=O)c1cc2c(C(F)(F)F)cccc2[nH]1 [Compound 856] | < 2000 nM
COc1cccc2[nH]c(C(=O)N[C@@H](CC(C)C)C(=O)N[C@@H](CC3CCNC3=O)C(C#N)NCc3ccccc3)cc12 (single isomer, unassigned) [507 (Isomer 2.2)] | < 2000 nM
CC(C)C[C@H](NC(=O)CC(C)(O)c1ccc(Cl)cc1)C(=O)N[C@H](C#N)C[C@@H]1CCNC1=O (single isomer, unassigned) [365 (Isomer 2)] | 2000 to 10000 nM

input: State the recorded EC50 for this entry: COc1cccc2[nH]c(C(=O)N3Cc4ccccc4C3C(=O)N[C@H](C#N)C[C@@H]3CCNC3=O)cc12 (single isomer, unassigned) [429A (Isomer 2)]
output: > 30000 nM

input: State the recorded EC50 for this entry: COc1cccc2[nH]c(C(=O)N3CC4(CCC4)CC3C(=O)N[C@H](C#N)C[C@@H]3CCNC3=O)cc12 (single isomer, unassigned) [399A (Isomer 1)]
output: < 2000 nM

input: State the recorded EC50 for this entry: COc1cccc2[nH]c(C(=O)N3CC4(CCC(F)(F)CC4)CC3C(=O)N[C@H](C#N)C[C@@H]3CCCNC3=O)cc12 (single isomer, unassigned) [982 (Isomer 1)]
output: < 2000 nM
